- assay_target: hERG (Homo sapiens (Human))
- Sequence (Q12809 whole entry): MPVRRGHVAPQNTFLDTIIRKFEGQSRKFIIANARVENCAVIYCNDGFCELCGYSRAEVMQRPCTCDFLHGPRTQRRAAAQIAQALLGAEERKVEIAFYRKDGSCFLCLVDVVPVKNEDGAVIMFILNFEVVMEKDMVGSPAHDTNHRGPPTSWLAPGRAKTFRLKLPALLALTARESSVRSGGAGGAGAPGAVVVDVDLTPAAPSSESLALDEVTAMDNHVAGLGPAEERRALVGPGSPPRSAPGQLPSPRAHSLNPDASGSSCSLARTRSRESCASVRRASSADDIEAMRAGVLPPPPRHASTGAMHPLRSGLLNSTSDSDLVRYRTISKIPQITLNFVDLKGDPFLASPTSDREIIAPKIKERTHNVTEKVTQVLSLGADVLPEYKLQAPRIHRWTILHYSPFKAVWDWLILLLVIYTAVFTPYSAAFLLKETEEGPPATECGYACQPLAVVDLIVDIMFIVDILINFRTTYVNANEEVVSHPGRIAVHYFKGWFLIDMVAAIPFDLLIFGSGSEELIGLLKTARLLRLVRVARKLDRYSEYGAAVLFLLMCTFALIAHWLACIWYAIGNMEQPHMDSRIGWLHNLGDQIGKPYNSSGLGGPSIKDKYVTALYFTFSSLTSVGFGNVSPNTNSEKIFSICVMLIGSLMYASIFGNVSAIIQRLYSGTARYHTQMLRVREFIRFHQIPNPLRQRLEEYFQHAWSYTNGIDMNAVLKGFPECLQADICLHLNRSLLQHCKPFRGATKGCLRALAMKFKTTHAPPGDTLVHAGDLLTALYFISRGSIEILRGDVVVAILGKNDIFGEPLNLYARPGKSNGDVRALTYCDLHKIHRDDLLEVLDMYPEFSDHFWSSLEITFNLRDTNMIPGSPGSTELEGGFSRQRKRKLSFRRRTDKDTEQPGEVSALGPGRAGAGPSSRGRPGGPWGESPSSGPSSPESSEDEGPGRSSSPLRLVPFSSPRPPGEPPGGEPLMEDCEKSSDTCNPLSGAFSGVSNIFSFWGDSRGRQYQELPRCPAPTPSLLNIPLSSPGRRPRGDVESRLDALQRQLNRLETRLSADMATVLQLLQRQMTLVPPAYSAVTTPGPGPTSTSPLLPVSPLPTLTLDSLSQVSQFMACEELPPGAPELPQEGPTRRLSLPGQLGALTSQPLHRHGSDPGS
- assay_method_text: hERG test, patch clamp on CHO-K1 cells
- experimental_context: CHO-K1 cells transfected with the hERG gene
- From the text: In the table below, the median inhibitory concentrations IC50 for the compounds belonging to formula (I) according to the invention have been given in accordance with the hERG test. The hERG test makes it possible to study a gene which codes for a protein required for the functioning of heart tissue potassium channels. […]
experimental_readout: IC50 (µM)
Give bare numbers, in µM.

Look over these answered cases.
CCc1ccc(N(CC(C)C)S(=O)(=O)c2ccc(NCC3(C)CCOCC3)c(S(C)(=N)=O)c2)cc1 (centres unmarked): 14.1
CCc1ccc(N(CC(C)C)S(=O)(=O)c2ccc(NCC3CC(O)C3)c(S(C)(=N)=O)c2)cc1 (centres unmarked): 25.7
CCc1ccc(N(CC(C)C)S(=O)(=O)c2ccc(N(C)CC3CCOCC3)c(S(C)(=N)=O)c2)cc1 (centres unmarked): 11.8

Now look at this one.
Inquiry: Lookup: IC50 / hERG (Homo sapiens (Human)) / CCc1ccc(N(CC(C)C)S(=O)(=O)c2ccc(NCC3(F)CCOCC3)c(S(C)(=N)=O)c2)cc1 (centres unmarked)
Reply text: 16.4
